# IC50 annotations
Measurement Target: Steroidogenic factor 1 (Homo sapiens)
Assay: blockers of SF-1 LBD reporter transcription – cell-based, CHO-K1, Gal4-SF-1 LBD, luciferase luminescence, dose response (AID 600)
Setup Conditions: inactive by the depositor's call
Give just the number in µM; leave the unit off.

Examples from the recorded data:
CCCCOc1ncnc2c1[nH]c1ccc(F)cc12: 11.4
Cc1ccc(-c2cn3nc(C)c(C)nc3n2)cc1: 20
Fc1ccc2[nH]c3c(N4CCSCC4)ncnc3c2c1 [MLS000078401]: 11.8
Cc1ccc2[nH]c3c(N4CCCCCC4)ncnc3c2c1: 10.9
CCOc1cc(C(=O)N2CCc3cc(OC)c(OC)cc3C2)ccc1OC(F)F [MLS000083614]: 12.9

Can you look up the measured IC50 of Cc1occc1C(=O)N1CCN(c2ccc(Cl)c(Cl)c2)CC1 for me?
29.7

For Cn1c(-c2ccco2)nc2cc3ccccc3cc21 , what is its reported IC50?
10.4

Quick one: IC50 for COc1ccc(NC(=O)NCCCN2CCN(c3cc(C)ccc3C)CC2)cc1 ?
24.3

Entry c1ccc(-c2cccc(-c3ccccn3)n2)nc1 [2,6-bis(2-pyridinyl)pyridine] : reported IC50 = ?
10.3

Request the reported IC50 associated with Cc1ccc(-c2cc3c(nn2)-c2ccccc2C3=O)cc1
13

Name the reported IC50 value associated with the compound CCOC(=O)N1CCC(NC(=O)C2CCCN(Cc3nc(-c4cccc(Cl)c4)oc3C)C2)CC1 (stereo unspecified)
11.3

---

Catalogue of pIC50 values
Measurement Target: Steroidogenic factor 1 (Homo sapiens)
Assay: blockers of SF-1 LBD reporter transcription – cell-based, CHO-K1, Gal4-SF-1 LBD, luciferase luminescence, dose response (AID 600)
Setup Conditions: inactive by the depositor's call
For clarity, pIC50 is expressed as the negative log10 of concentration in mol/L.

COc1ccc(CCNc2c(C)c(C)nc3ncnn23)cc1: 4.82

// returns reported pIC50 for input CCOC(=O)c1oc2ccc(S(=O)(=O)Nc3ccc4c(c3)n(C)c(=O)n4C)cc2c1C
4.59

# get_value(readout='pIC50', item= COc1ccc(OC)c(NS(=O)(=O)c2ccc(N3CCCC3=O)cc2)c1 [MLS000079343] )
4.44

Returns the measured pIC50 for the input molecule. Input: O=C(CSC1=NCCS1)Nc1ccnc2ccccc12
4.82

Form field: reported pIC50 of CCCCOC(=O)c1[nH]c2c(c1C)C(=O)CC(c1cc(OC)c(OC)c(OC)c1)C2 (centres undefined)
4.77

Can you look up the measured pIC50 of CN1/C(=C/C(=O)c2nc(S(C)(=O)=O)ncc2Cl)C(C)(C)c2ccccc21 for me?
4.81

If you can, please state the reported pIC50 value of Cc1nn(-c2ccccc2)c(C)c1C(=O)OCC(=O)c1c(N)n(CC(C)C)c(=O)n(C)c1=O .
4.52

I'd like to know its pIC50. The molecule in question is O=C(Nc1nnc(C2CC2)o1)c1ccc(S(=O)(=O)N2CCCc3ccccc32)cc1 [MLS000116109]
4.86

Record request: pIC50 value, item CCCCOc1ccc(OC(=O)c2cccnc2)cc1 [(4-butoxyphenyl) pyridine-3-carboxylate]
4.81

---

Measurement Target: Steroidogenic factor 1 (Homo sapiens, UniProt Q13285)
Sequence (Q13285 whole entry, the tested form may be a part): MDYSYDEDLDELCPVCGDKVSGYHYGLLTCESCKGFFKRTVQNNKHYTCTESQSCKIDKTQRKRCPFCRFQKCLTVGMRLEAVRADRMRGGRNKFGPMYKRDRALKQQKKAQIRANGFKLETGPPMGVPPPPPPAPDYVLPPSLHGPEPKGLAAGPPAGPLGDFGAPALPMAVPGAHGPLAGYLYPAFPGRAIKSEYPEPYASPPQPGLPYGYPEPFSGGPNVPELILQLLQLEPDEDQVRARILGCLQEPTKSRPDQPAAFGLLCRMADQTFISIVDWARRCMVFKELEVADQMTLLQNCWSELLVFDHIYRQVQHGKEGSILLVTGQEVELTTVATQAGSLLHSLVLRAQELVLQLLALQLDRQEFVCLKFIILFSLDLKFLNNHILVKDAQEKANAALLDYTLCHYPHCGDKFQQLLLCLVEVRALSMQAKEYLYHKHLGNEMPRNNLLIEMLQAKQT
Assay: blockers of SF-1 LBD reporter transcription – cell-based, CHO-K1, Gal4-SF-1 LBD, luciferase luminescence, dose response (AID 600)
Listed compounds paired with reported IC50
# unit: µM | format: bare number

Below, 5 compounds whose answers are already recorded.
Cc1cccc(N2CCN(C(=O)CSCc3c(C)noc3C)CC2)c1C: 0.876
Cc1ccc(-c2nsc3c(N4CCC(C(N)=O)CC4)ncnc23)cc1: 0.221
O=c1c2ccccc2cnn1-c1nc2ccccc2s1: 2.12
N#Cc1c(NC(=O)CSc2nc[nH]n2)sc2c1CCCCC2: 0.098
Nc1nc(Cl)nc2c1ncn2[C@H]1C[C@H](O)[C@@H](CO)O1: 0.454

Which IC50 value is on record for CCN1C(=O)/C(=C2/Sc3ccc(OC)cc3N2C)S/C1=N\c1cccc(O)c1 ?
7.66

Form field: reported IC50 of Cc1ccc(-c2nnc(Nc3ccccc3)o2)cc1
5.17

Any idea what IC50 was measured for O=C(Nc1ccccc1NC(=O)NC1CCCCC1)NC1CCCCC1 ?
1.64

Using the record for Cc1oc(-c2ccc3c(c2)OCCO3)cc1C(=O)O , report its IC50.
5.55

Fill in the blank: the reported IC50 of c1ccc2nc(-c3nc4ccccc4o3)ccc2c1 is ____.
6.81

Fill in the blank: the reported IC50 of CCOc1ccc(-c2noc(CCC(=O)O)n2)cc1 is ____.
3.89

Report IC50 for O=C(Cc1ccc(Cl)cc1)Nc1ccc(-c2nnc(-c3ccco3)o2)cc1 please.
9.18

Query: IC50; subject: O=S(=O)(Nc1cccc2ncccc12)c1cccs1
5.27

Which IC50 is reported for this compound? CCOC(=O)c1[n-]c2ccccc2c1[N+]#N
11.3

Name the reported IC50 value associated with the compound COc1ccc(CC(=O)Nc2ccc(-c3nnc(-c4ccccc4)o3)cc2)cc1OC
2.44

Fill blank: measured IC50 of the compound COc1ccc(C(=O)Nc2ccc(C)cn2)c(OC)c1 is ____.
3.4

Query (compound): c1ccc(-c2nc(N3CCCCCC3)c3ccccc3n2)nc1 ; field requested: IC50
3.46

Quick one: IC50 for O=C(OC1CCOC1=O)c1ccc(-c2nc3ccccc3s2)s1 (centres undefined) ?
5.75

Suppose we examine the compound CCCCS(=O)(=O)/C=C\C=C/S(=O)(=O)CCCC ; what IC50 value has been reported?
1.3
